Numbers sourced from the kinase profiling compilation of Christmann-Franck et al. (2016).

Below, each of the compounds is paired with its reported residual activity value.
- tgt: PAK4 (human) (UniProt O96013)
- Sequence (O96013 whole entry, looked up): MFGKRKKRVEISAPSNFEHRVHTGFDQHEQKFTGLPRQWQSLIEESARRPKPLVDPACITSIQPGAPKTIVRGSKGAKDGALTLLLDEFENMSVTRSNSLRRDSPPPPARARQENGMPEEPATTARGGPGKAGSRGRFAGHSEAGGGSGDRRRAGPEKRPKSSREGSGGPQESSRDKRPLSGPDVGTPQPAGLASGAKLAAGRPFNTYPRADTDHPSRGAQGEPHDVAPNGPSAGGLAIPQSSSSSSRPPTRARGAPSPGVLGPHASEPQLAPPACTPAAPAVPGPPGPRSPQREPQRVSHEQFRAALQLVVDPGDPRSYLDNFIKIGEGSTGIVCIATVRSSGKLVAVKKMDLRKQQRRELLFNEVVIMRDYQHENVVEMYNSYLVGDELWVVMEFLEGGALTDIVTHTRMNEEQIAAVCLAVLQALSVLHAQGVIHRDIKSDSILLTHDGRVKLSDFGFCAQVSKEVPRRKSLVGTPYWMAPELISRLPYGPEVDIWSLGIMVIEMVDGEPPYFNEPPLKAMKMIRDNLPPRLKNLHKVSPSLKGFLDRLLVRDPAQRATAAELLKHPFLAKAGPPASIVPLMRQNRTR
- test details: radiometric filter-binding kinase assay, Kinase HotSpot
- particulars: compound 0.5 µM; ATP 10 µM
Write down the numeric answer in % and omit the unit.

Worked examples follow.
                            chemical_smiles  reported_endpoint  reading_unit  reported
0  COc1cc2c(Nc3ccc(Br)cc3F)ncnc2cc1OCC1CCN(C)CC1  residual activity             %      90.2
1          COc1cccc(-c2cc(=O)c3ccccc3o2)c1N  residual activity             %      88.1
2  O=c1[nH]c2ccccc2n1C1CCN(Cc2ccc(-c3nc4cc5[nH]cnc5cc4nc3-c3ccccc3)cc2)CC1  residual activity             %       102

Here is the next item to consider.
In plain terms, CCCCc1c(-c2ccc(O)cc2)[nH]c2nccnc12 has a documented residual activity of 108

---

Below, each of the molecules is paired with its reported residual activity value.
- tgt: SGK3 (human) (UniProt Q96BR1)
- Sequence (Q96BR1 whole entry, looked up): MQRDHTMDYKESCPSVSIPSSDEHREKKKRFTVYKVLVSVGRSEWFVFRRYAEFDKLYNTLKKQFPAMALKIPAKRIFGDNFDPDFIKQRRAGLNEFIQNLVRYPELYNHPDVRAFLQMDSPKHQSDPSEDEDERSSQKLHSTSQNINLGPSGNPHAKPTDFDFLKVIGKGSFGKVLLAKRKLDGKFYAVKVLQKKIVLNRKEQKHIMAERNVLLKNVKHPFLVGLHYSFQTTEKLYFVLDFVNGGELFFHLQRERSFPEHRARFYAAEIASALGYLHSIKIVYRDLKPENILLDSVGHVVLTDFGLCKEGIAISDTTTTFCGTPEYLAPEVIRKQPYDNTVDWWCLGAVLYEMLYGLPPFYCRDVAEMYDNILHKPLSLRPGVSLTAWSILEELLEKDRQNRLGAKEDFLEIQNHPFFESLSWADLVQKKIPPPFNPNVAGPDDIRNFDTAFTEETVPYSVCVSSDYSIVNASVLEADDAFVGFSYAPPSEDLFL
- test details: radiometric filter-binding kinase assay, Kinase HotSpot
- particulars: compound 0.5 µM; ATP 10 µM
Write down the numeric answer in % and omit the unit.

Worked examples follow.
>>> print(df.to_string())
                            chemical_smiles  reported_endpoint  reported
0    N#Cc1c(NC(=O)c2cccc3ccccc23)sc2c1CCCC2  residual activity       107
1       CCOc1cc2ncnc(Nc3cccc(Br)c3)c2cc1OCC  residual activity      96.7
2                   Nc1ncnc2c1cnn2-c1ccccc1  residual activity      92.3
3  Cn1cc(/C=C2\C(=O)Nc3ccc(S(N)(=O)=O)cc32)c2ccccc21  residual activity      94.7
4  O=c1c(-c2ccc(F)cc2)c(-c2ccncc2)[nH]n1-c1ccc(Cl)cc1  residual activity       100

In plain terms, COc1cc2c(Nc3ccc(Br)cc3F)ncnc2cc1OCC1CCN(C)CC1 has a documented residual activity of 97.9

In plain terms, O=C(O)c1ccc2c3c1cccc3c(=O)n1c3ccccc3nc21 has a documented residual activity of 103

In plain terms, O=S(=O)(NCCNC/C=C/c1ccc(Br)cc1)c1cccc2cnccc12 has a documented residual activity of 78.8

In plain terms, COc1cccc(-c2cc(=O)c3ccccc3o2)c1N has a documented residual activity of 101

In plain terms, COc1cc2c(N3CCN(C(=O)Nc4ccc(OC(C)C)cc4)CC3)ncnc2cc1OCCCN1CCCCC1 has a documented residual activity of 102

In plain terms, CCc1nc(-c2ccc(OC)cc2)[nH]c1-c1ccncc1 has a documented residual activity of 99.3

---

- tgt: UniProt:P49760
- Sequence (P49760 whole entry, looked up): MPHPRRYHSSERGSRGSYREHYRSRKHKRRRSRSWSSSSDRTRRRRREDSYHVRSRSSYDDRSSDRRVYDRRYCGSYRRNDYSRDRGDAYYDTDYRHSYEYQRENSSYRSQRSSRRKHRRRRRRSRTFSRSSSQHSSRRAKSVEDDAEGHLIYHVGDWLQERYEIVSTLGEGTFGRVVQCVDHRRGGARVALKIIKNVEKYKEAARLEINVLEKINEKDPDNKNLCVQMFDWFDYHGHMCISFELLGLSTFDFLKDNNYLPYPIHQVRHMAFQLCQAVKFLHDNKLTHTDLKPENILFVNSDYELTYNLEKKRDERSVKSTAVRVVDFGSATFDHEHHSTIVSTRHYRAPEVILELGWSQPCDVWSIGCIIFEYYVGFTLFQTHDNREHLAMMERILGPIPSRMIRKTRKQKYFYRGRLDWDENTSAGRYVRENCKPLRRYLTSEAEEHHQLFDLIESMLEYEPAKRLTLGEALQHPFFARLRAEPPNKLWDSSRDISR
- test details: radiometric filter-binding kinase assay, Kinase HotSpot
- particulars: compound 0.5 µM; ATP 10 µM
Below, each of the compounds is paired with its reported residual activity value.
Write down the numeric answer in % and omit the unit.

Worked examples follow.
In [3]: df
Out[3]:
                            chemical_smiles  reported
0       CCOc1cc2ncnc(Nc3cccc(Br)c3)c2cc1OCC      92.6
1      CCc1nc(-c2ccc(OC)cc2)[nH]c1-c1ccncc1       106
2  COc1cc2c(N3CCN(C(=O)Nc4ccc(OC(C)C)cc4)CC3)ncnc2cc1OCCCN1CCCCC1      80.7

Here is the next item to consider.
In plain terms, N#C/C(=C1/Nc2ccccc2S1)c1ccnc(NCCc2cccnc2)n1 has a documented residual activity of 48.5
